test system: rodent lifetime carcinogenesis bioassay, tumor incidence TD50; experiment: carcinogenic potency in animals, long-term in vivo studies, CPDB compilation (AID 1745844); details: rat; strain Sprague-Dawley; females; in feed; site: small intestine; lesion: leiomyosarcoma; dosed 40 weeks; study length 59 weeks
REPORTED PROPERTY: TD50

For the molecule "CC(=O)Nc1nnc(-c2ccc([N+](=O)[O-])o2)s1" , give its reported TD50.
111 mg/kg/day

###

tested on: rodent lifetime carcinogenesis bioassay, tumor incidence TD50; test: carcinogenic potency in animals, long-term in vivo studies, CPDB compilation (AID 1745844); conditions: hamster; strain Syrian Golden; females; by gavage; site: liver; lesion: hepatocellular tumor; dosed 61 weeks; study length 106 weeks
REPORTED PROPERTY: TD50 (mg/kg/day)
Supply the numeric figure in mg/kg/day, leaving out any unit text.

Recall and state the measured TD50 for "CN(C)CCN(C)N=O" .
44

###

test system: rodent lifetime carcinogenesis bioassay, tumor incidence TD50; assay: carcinogenic potency in animals, long-term in vivo studies, CPDB compilation (AID 1745844); details: mouse; strain B6C3F1; females; in feed; site: adrenal gland; lesion: pheochromocytoma + pheochromocytoma, malignant; dosed 103 weeks; study length 105 weeks
REPORTED PROPERTY: TD50

Given "N=C1C=CC(=C(c2ccc(N)cc2)c2ccc(N)cc2)C=C1" , report its TD50 on rodent lifetime carcinogenesis bioassay, tumor incidence TD50.
90.6 mg/kg/day

###

tested on: rodent lifetime carcinogenesis bioassay, tumor incidence TD50; test: carcinogenic potency in animals, long-term in vivo studies, CPDB compilation (AID 1745844); settings: rat; strain Fischer 344; females; inhaled; site: clitoral gland; lesion: adenoma + adenoma, bilateral; dosed 105 weeks; study length 105 weeks
REPORTED PROPERTY: TD50 (mg/kg/day)
Express your answer in mg/kg/day, writing the number without its unit.

Return reported TD50. Input compound: "OCc1ccco1"
35.7

###

test system: rodent lifetime carcinogenesis bioassay, tumor incidence TD50; assay: carcinogenic potency in animals, long-term in vivo studies, CPDB compilation (AID 1745844); conditions: rat; strain Fischer 344; males; in feed; site: urinary bladder; lesion: transitional-cell carcinoma + transitional-cell papilloma; dosed 66 weeks; study length 66 weeks
REPORTED PROPERTY: TD50 (mg/kg/day)
Field: numeric (mg/kg/day). Do not append units.

GET TD50 where system = rodent lifetime carcinogenesis bioassay, tumor incidence TD50 and item = "Nc1c(Br)cc(Br)c2c1C(=O)c1ccccc1C2=O"
3640

###

test system: rodent lifetime carcinogenesis bioassay, tumor incidence TD50; assay: carcinogenic potency in animals, long-term in vivo studies, CPDB compilation (AID 1745844); settings: mouse; strain B6C3F1; females; in drinking water; site: liver; lesion: hepatocellular carcinoma; dosed 90 weeks; study length 90 weeks
REPORTED PROPERTY: TD50

Name the recorded TD50 of the item "C1COCCO1" in your answer.
938 mg/kg/day

###

system: rodent lifetime carcinogenesis bioassay, tumor incidence TD50; assay: carcinogenic potency in animals, long-term in vivo studies, CPDB compilation (AID 1745844); conditions: rat; strain Fischer 344; females; in drinking water; site: brain; lesion: oligodendroglioma; dosed 104 weeks; study length 104 weeks
REPORTED PROPERTY: TD50 (mg/kg/day)
The response must be a number in mg/kg/day with no trailing unit.

For rodent lifetime carcinogenesis bioassay, tumor incidence TD50, give the measured TD50 of the entry "C=CC(N)=O"
259
